B1: ZNF449 (parent)
chain: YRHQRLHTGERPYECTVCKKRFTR

variants of: B1; test: protein stability index of a GFP-peptide fusion (GPS, HEK-293T) (PSI 1-6); higher = more stable; conditions: c terminus: a fixed tail appended;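 further: lentivirally expressed fusions sorted by FACS into six bins by GFP to DsRed ratio, PSI derived from sequencing read proportions per bin multiplied by bin number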
Classify by measured protein stability index: class 1 if it is equal to or exceeds 2, class 0 if it is smaller.

R21N	class 0
T16G	class 1
T16I	class 1
Y13T	class 1

q: Answer whether protein stability index of `C18T` is greater than or equal to 2.
a: class 1

Values from the supplement of paper PMC10567573
